meta.source: patent US11377451B2

Tested on: HK301
protocol summary: GI50 assay (Cell Titer Glo proliferation, 3 days)
Format: cell-based, human
experimental conditions: Homo sapiens, 72 h; HK301, 3 days; read-out: HK301 GI50
// GI50 lookup, one value per entry
measured endpoint: GI50 (µM)

>>> assay_result("Fc1ccc(F)c(Nc2ncnc3cc4c(cc23)OCCO4)c1 [JGK026]")
6.12
>>> assay_result("CN1CCN(C[C@H]2COc3cc4ncnc(Nc5cccc(Br)c5F)c4cc3O2)CC1 [JGK068S]")
0.44
>>> assay_result("C#Cc1cccc(Nc2ncnc3cc4c(cc23)OCCO4)c1F [JGK038]")
0.791
>>> assay_result("Fc1ccccc1Nc1ncnc2cc3c(cc12)OCCO3 [JGK035]")
4.04
>>> assay_result("Fc1c(Br)cccc1Nc1ncnc2cc3c(cc12)OCC(CN1CCCCC1)O3 (racemic) [JGK080]")
7.37
>>> assay_result("Fc1c(Br)cccc1Nc1ncnc2cc3c(cc12)OCC(CCN1CCCCC1)O3 (racemic) [JGK090]")
2.39
>>> assay_result("Fc1c(Br)cc(Cl)cc1Nc1ncnc2cc3c(cc12)OCCO3 [JGK058]")
1.85
>>> assay_result("CN1CCN(CCC2COc3cc4c(Nc5cccc(Br)c5F)ncnc4cc3O2)CC1 (racemic) [JGK088]")
2.13
>>> assay_result("C#Cc1cccc(N(C(=O)OC(C)(C)C)C2=NC(OC)N(C(=O)OC(C)(C)C)c3cc(OCCOC)c(OCCOC)cc32)c1 (stereo not shown) [JGK001]")
2.21
>>> assay_result("Oc1cc2ncnc(Nc3cccc(Cl)c3F)c2cc1O [JGK022]")
31.1
>>> assay_result("O=C(Oc1cc2ncnc(Nc3cccc(Cl)c3F)c2cc1OC(=O)c1ccccc1)c1ccccc1 [JGK004]")
23.4
>>> assay_result("Fc1c(Br)cccc1Nc1ncnc2cc3c(c(F)c12)OCCO3 [JGK072]")
5.02
>>> assay_result("CN(C)C[C@H]1COc2cc3ncnc(Nc4cccc(Br)c4F)c3cc2O1 [JGK066S]")
0.301
>>> assay_result("Fc1c(I)cccc1Nc1ncnc2cc3c(cc12)OCCO3 [JGK042]")
2.29
>>> assay_result("C#Cc1cccc(Nc2ncnc3cc4c(cc23)OCCO4)c1 [JGK005]")
8.82
>>> assay_result("COC(=O)[C@H](Cc1ccc(Nc2ncnc3cc4c(cc23)OCCO4)cc1)NC(=O)OC(C)(C)C [JGK015]")
2.15
>>> assay_result("Fc1c(Br)cccc1Nc1ncnc2c(F)c3c(cc12)OCCO3 [JGK071]")
5.75
>>> assay_result("C#Cc1cccc(N(C(=O)CCCCOC(=O)CCCCOC(=O)CCCCOC(C)=O)c2ncnc3cc(OCCOC)c(OCCOC)cc23)c1 [JGK009]")
6.1
>>> assay_result("Fc1c(Nc2ncnc3cc4c(cc23)OCCO4)ccc(Cl)c1Cl [JGK060]")
2.95

====

// fraction unbound lookup, one value per entry
protocol summary: Protein binding (fraction unbound in blood and brain)
experimental conditions: blood, Fu (blood), fraction unbound
measured endpoint: fraction unbound

>>> assay_result("C#Cc1cccc(Nc2ncnc3cc(OCCOC)c(OCCOC)cc23)c1 [Erlotinib, erlotinib]")
0.0488
>>> assay_result("CN1CCN(C[C@H]2COc3cc4ncnc(Nc5cccc(Br)c5F)c4cc3O2)CC1 [JGK068S]")
0.0596
>>> assay_result("Fc1c(Br)cccc1Nc1ncnc2cc3c(cc12)OCCO3 [JGK037]")
0.017
>>> assay_result("Fc1c(Br)cccc1Nc1ncnc2cc3c(cc12)OC(CN1CCOCC1)CO3 (racemic) [JGK063]")
0.0804
>>> assay_result("CN1CCN(CC2COc3cc4ncnc(Nc5cccc(Br)c5F)c4cc3O2)CC1 (racemic) [JGK068]")
0.0631
>>> assay_result("CN1CCN(C[C@@H]2COc3cc4ncnc(Nc5cccc(Br)c5F)c4cc3O2)CC1 [JGK068R]")
0.0533
>>> assay_result("Fc1c(Br)cccc1Nc1ncnc2cc3c(cc12)O[C@@H](CN1CCNCC1)CO3 [JGK083S]")
0.0702
>>> assay_result("Fc1c(Cl)cccc1Nc1ncnc2cc3c(cc12)OCCO3 [JGK010]")
0.0112

====

System: HK301
protocol summary: GI50 assay (Cell Titer Glo proliferation, 3 days)
Type: cell-based, human
experimental conditions: Homo sapiens, 72 h; HK301, 3 days; read-out: HK301 GI50
// GI50 lookup, one value per entry
measured endpoint: GI50 (nM)

>>> assay_result("CC(=O)N(CCS(C)(=O)=O)Cc1ccc(-c2ccc3ncnc(N(C(C)=O)c4ccc(OCc5cccc(F)c5)c(Cl)c4)c3c2)o1")
9210
>>> assay_result("Fc1ccc(Nc2ncnc3cc4c(cc23)OCCO4)c(F)c1Br")
1380
>>> assay_result("OC1COc2cc3ncnc(Nc4cccc(Br)c4F)c3cc2O1 (racemic)")
1160
>>> assay_result("CN(C)CCC1COc2cc3ncnc(Nc4cccc(Br)c4F)c3cc2O1 (racemic)")
659

====

// Kp uu lookup, one value per entry
protocol summary: Pharmacokinetic / brain penetration studies in mice
Assay type: in vivo
experimental conditions: male, CD-1, mouse; Table 4; unbound partition coefficient of the brain and plasma, at equilibrium
measured endpoint: Kp uu

>>> assay_result("Fc1c(Cl)cccc1Nc1ncnc2cc3c(cc12)OCCO3")
1.04
>>> assay_result("Fc1cccc(Nc2ncnc3cc4c(cc23)OCCO4)c1F")
1.04
>>> assay_result("COc1cc2ncnc(Nc3cccc(Cl)c3F)c2cc1OC(=O)N1CCN(C)C[C@H]1C")
0.802
>>> assay_result("CN1CCN(C[C@@H]2COc3cc4ncnc(Nc5cccc(Br)c5F)c4cc3O2)CC1 [JGK068R]")
1.05
>>> assay_result("Fc1c(I)cccc1Nc1ncnc2cc3c(cc12)OCCO3")
1.03
>>> assay_result("Fc1c(Br)cccc1Nc1ncnc2cc3c(cc12)OCCO3")
1.3

====

protocol summary: in vitro
experimental conditions: Fu (brain)
measured endpoint: fraction unbound

>>> assay_result("COc1cc2ncnc(Nc3cccc(Cl)c3F)c2cc1OC(=O)N1CCN(C)C[C@H]1C [AZD3759]")
0.0144

====

Test system: HK301
protocol summary: GI50 assay (Cell Titer Glo proliferation, 3 days)
Assay type: cell-based, human
experimental conditions: Homo sapiens, 72 h; HK301, 3 days; read-out: HK301 GI50
// GI50 lookup, one value per entry
measured endpoint: GI50 (nM)

>>> assay_result("Fc1ccc(Br)cc1Nc1ncnc2cc3c(cc12)OCCO3")
290
>>> assay_result("Fc1c(Br)cccc1Nc1ncnc2cc3c(cc12)OC(CN1CCCCC1)CO3 (racemic)")
3430
>>> assay_result("CC(=O)OCN(c1cccc(Cl)c1F)c1ncnc2cc3c(cc12)OCCO3")
745
>>> assay_result("Fc1c(Br)cccc1Nc1ncnc2cc3c(cc12)OC(CN1CCOCC1)CO3 (racemic)")
816
>>> assay_result("Fc1c(Br)cccc1Nc1ncnc2cc3c(cc12)OC(CN1CCCC1)CO3 (racemic)")
898
>>> assay_result("Fc1cc(F)c(Nc2ncnc3cc4c(cc23)OCCO4)c(F)c1")
24400
>>> assay_result("CN1CCN(CC2COc3cc4ncnc(Nc5cccc(Br)c5)c4cc3O2)CC1 (stereo not shown)")
2280
>>> assay_result("CC(=O)N(c1cccc(Cl)c1F)c1ncnc2cc3c(cc12)OCCO3")
5480
>>> assay_result("Fc1ccc(Nc2ncnc3cc4c(cc23)OCCO4)c(F)c1")
10700
>>> assay_result("COC(=O)[C@@H](N)Cc1ccc(Nc2ncnc3cc4c(cc23)OCCO4)cc1")
4050
>>> assay_result("CN1CCN(CC2COc3cc4c(Nc5cccc(Br)c5F)ncnc4cc3O2)CC1 (racemic)")
2030
>>> assay_result("Fc1cccc(F)c1Nc1ncnc2cc3c(cc12)OCCO3")
5810
>>> assay_result("Fc1c(Cl)cccc1Nc1ncnc2cc3c(cc12)OCCCO3")
1720
>>> assay_result("COc1cc2ncnc(Nc3cccc(Cl)c3F)c2cc1OC(C)=O")
1070
>>> assay_result("Fc1c(Br)cccc1Nc1ncnc2cc3c(cc12)OCCO3")
329
>>> assay_result("Fc1c(F)c(F)c(Nc2ncnc3cc4c(cc23)OCCO4)c(F)c1F")
559000
>>> assay_result("CN1CCN(CCC2COc3cc4ncnc(Nc5cccc(Br)c5F)c4cc3O2)CC1 (racemic)")
1400
>>> assay_result("N[C@@H](Cc1ccc(Nc2ncnc3cc4c(cc23)OCCO4)cc1)C(=O)O")
86200
>>> assay_result("Fc1c(Nc2ncnc3cc4c(cc23)OCCO4)ccc(Br)c1Br")
5720

====

protocol summary: Pharmacokinetic / brain penetration studies in mice
Format: in vivo
experimental conditions: male, CD-1, mouse; Table 5; unbound ratios of drugs in brain to plasma, non-tumor bearing mice
measured endpoint: Kp uu

>>> assay_result("C#Cc1cccc(Nc2ncnc3cc4c(cc23)OCCO4)c1")
0.491
>>> assay_result("C#Cc1cccc(Nc2ncnc3cc4c(cc23)OCCO4)c1F")
0.575
